# System: glycogen synthase
# test: Glycogen Synthase (GS) Assay
# Format: biochemical
# settings: compound concentration needed to give 50% maximum activation
measured_quantity: pEC50
Reminder that pEC50 means the negative base-10 logarithm of the concentration expressed in mol/L.

Use the examples below as a reference point.
COc1cc(F)c(F)cc1-c1ccc(OCc2nc(C(=O)N(CC(=O)O)C(C)(C)C)cs2)cc1 = 6.96
O=C(c1cccc(COc2ccc(-c3cc(F)c(F)cc3F)cc2)c1)N1CCC[C@H]1c1nnn[nH]1 = 5.68
COc1cc(F)c(F)cc1-c1ccc(OCc2cccc(C(=O)N3CCC[C@H]3C(=O)O)c2)cc1 = 6.85
Cc1cc(F)c(F)cc1-c1ccc(OCc2cccc(C(=O)N(C)CC(=O)O)c2)cc1 = 7.10
CN(CC(=O)NS(C)(=O)=O)C(=O)c1cccc(COc2ccc(-c3cc(F)c(F)cc3F)cc2)c1 = 6.70
COc1cc(F)c(F)cc1-c1ccc(OCc2cccc(C(=O)N(C)CC(=O)O)c2)cc1F = 6.80

Now, please, on to the next molecule.
GET /values?item= CN(CC(=O)O)C(=O)c1cccc(COc2ccc(-c3cc(F)c(F)cc3F)cc2F)c1 &system= glycogen synthase returns pEC50: 7.00

* * *

# System: glycogen synthase
# test: Glycogen Synthase (GS) Assay
# Format: biochemical
# settings: compound concentration needed to give 50% maximum activation
Entries and their measured log10(EC50) follow.
Field: value | Transform: log10 | Quantity: EC50 | Unit: µM

Use these answered entries as a reference point.
CN(CC(=O)O)C(=O)c1cccc(COc2ccc(-c3cc(F)c(F)cc3F)cc2)c1 = -1.00
COc1cc(F)c(F)cc1-c1ccc(OCc2cccc(C(=O)N3CCC[C@@H]3C(=O)O)c2)cc1 = -0.66
O=C(O)[C@@H]1CCCN1C(=O)c1cccc(COc2ccc(-c3ccc(F)cc3F)cc2)c1 = -0.92

Here COc1cc(F)c(F)cc1-c1ccc(OCc2cc(C(=O)N(C)CC(=O)O)ccc2F)cc1 was tested on glycogen synthase, and its log10(EC50) came to -1.10

Bench note, glycogen synthase: entry COc1cc(F)c(F)cc1-c1ccc(OCc2cccc(C(=O)N(CC(=O)O)C(C)(C)C)c2)cc1 , its log10(EC50) = -0.70

Lab entry: glycogen synthase assay, compound Cc1cc(F)c(F)cc1-c1ccc(OCc2cccc(C(=O)N3CCC[C@H]3C(=O)O)c2)cc1 , log10(EC50) = -1.40

The reported glycogen synthase log10(EC50) of O=C(NS(=O)(=O)C1CC1)c1cccc(COc2ccc(-c3cc(F)c(F)cc3F)cc2)c1 is -0.16

Record COc1cc(F)c(F)cc1-c1ccc(OCc2cccc(C(=O)N(C)CC(=O)O)c2)cc1 / glycogen synthase, log10(EC50) recorded as -1.00
